Reference source: PubChem BioAssay

Experiment: ovarian cancer cell viability with rucaparib, profiling panel, oncology-focused library, rucaparib conditional (AID 1508598)
Conditions: patient-derived ovarian cancer cells, CellTiter-Glo viability, 144 h; at 0.000305 µM; OCI-P5x cells; without rucaparib
Activity calls are given as the source filed them.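 The calls were made as follows: active = normalized viability below 100% at a tested concentration; inactive = the rest.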
Outcome codes: active, inactive

{"columns": ["COMPOUND", "LABEL_CLASS"],
 "data": [
  ["Cc1nc(Nc2ncc(C(=O)Nc3c(C)cccc3Cl)s2)cc(N2CCN(CCO)CC2)n1", "active"],
  ["Nc1nc(Cl)nc2c1ncn2[C@@H]1O[C@H](CO)[C@@H](O)[C@@H]1F", "inactive"],
  ["COc1cc2ncnc(Nc3ccc(F)c(Cl)c3)c2cc1OCCCN1CCOCC1", "inactive"],
  ["O=C(CCCCCCC(=O)Nc1ccccc1)NO", "active"],
  ["O=C(CCc1ccc(O)cc1)c1c(O)cc(O)cc1O", "active"],
  ["Nc1cccc2c1CN(C1CCC(=O)NC1=O)C2=O (stereo not given)", "inactive"],
  ["O=C(NOCC1CC1)c1ccc(F)c(F)c1Nc1ccc(I)cc1Cl", "inactive"],
  ["Cc1ccc(-n2nc(C(C)(C)C)cc2NC(=O)Nc2ccc(OCCN3CCOCC3)c3ccccc23)cc1", "inactive"],
  ["CNC(=O)c1ccccc1Sc1ccc2c(/C=C/c3ccccn3)n[nH]c2c1", "active"],
  ["Cc1cc(O)c2c(c1)C(=O)c1cccc(O)c1C2=O", "active"],
  ["CNC(=O)c1cc(Oc2ccc(NC(=O)Nc3ccc(Cl)c(C(F)(F)F)c3)cc2)ccn1", "active"],
  ["CC/C(=C(\\c1ccccc1)c1ccc(OCCN(C)C)cc1)c1ccccc1", "active"],
  ["Cc1ccc(Nc2nccc(N(C)c3ccc4c(C)n(C)nc4c3)n2)cc1S(N)(=O)=O", "inactive"],
  ["CN1CC[C@H](c2c(O)cc(O)c3c(=O)cc(-c4ccccc4Cl)oc23)[C@H](O)C1", "active"],
  ["CCN(CC)CCNC(=O)c1c(C)[nH]c(/C=C2\\C(=O)Nc3ccc(F)cc32)c1C", "active"]
]}

###

System: Aerobactin synthetase IucA (Klebsiella pneumoniae)
Test: IucA aerobactin synthetase inhibitors, biochemical, Tocris library, absorbance (AID 1345561);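 also: 100% = enzyme without compound and 0% = no enzyme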
Details: purified IucA enzyme assay, absorbance (OD) read-out; stronger effect = lower value; concentration not given here
Calls of active or inactive are those of the source. No rule for the calls is given here.

{"columns": ["COMPOUND", "MEASUREMENT_TARGET", "remaining activity"],
 "data": [
  ["CS(=O)(=O)CCNCc1nc(-c2ccc3ncnc(Nc4ccc(OCc5cccc(F)c5)c(Cl)c4)c3c2)cs1", "Aerobactin synthetase IucA (Klebsiella pneumoniae)", "122% (inactive)"],
  ["COc1cccc(OC)c1OCCNCC1COc2ccccc2O1 (stereo unspecified)", "Aerobactin synthetase IucA (Klebsiella pneumoniae)", "108% (inactive)"],
  ["O=c1c(-c2ccc(O)cc2)coc2cc(O)ccc12", "Aerobactin synthetase IucA (Klebsiella pneumoniae)", "111% (inactive)"],
  ["CC[C@H](C)C(=O)O[C@H]1CCC=C2C=C[C@H](C)[C@H](CC[C@@H]3C[C@@H](O)CC(=O)O3)[C@H]21", "Aerobactin synthetase IucA (Klebsiella pneumoniae)", "123% (inactive)"],
  ["C[C@@]12C(=O)OC(=O)[C@]1(C)[C@H]1CC[C@@H]2O1", "Aerobactin synthetase IucA (Klebsiella pneumoniae)", "119% (inactive)"],
  ["CC[C@]1(O)C[C@H]2CN(CCc3c([nH]c4ccccc34)[C@@](C(=O)OC)(c3cc4c(cc3OC)N(C=O)[C@H]3[C@@](O)(C(=O)OC)[C@H](OC(C)=O)[C@]5(CC)C=CCN6CC[C@]43[C@@H]65)C2)C1", "Aerobactin synthetase IucA (Klebsiella pneumoniae)", "121% (inactive)"],
  ["CC(C(=O)O)c1ccc(-c2ccccc2)c(F)c1 (stereo unspecified)", "Aerobactin synthetase IucA (Klebsiella pneumoniae)", "123% (inactive)"],
  ["CCC(CC)(CC(=O)Nc1cccc(/C=C/c2nc(C3CCC3)cs2)c1)C(=O)O", "Aerobactin synthetase IucA (Klebsiella pneumoniae)", "89.3% (inactive)"],
  ["N=c1nc(N2CCCCC2)cc(N)n1O", "Aerobactin synthetase IucA (Klebsiella pneumoniae)", "109% (inactive)"],
  ["Cl/C(=C\\n1cncn1)c1ccc(Cl)cc1Cl", "Aerobactin synthetase IucA (Klebsiella pneumoniae)", "121% (inactive)"],
  ["COc1cc2c(Nc3ccc(NC(=O)c4ccccc4)cc3)ncnc2cc1OCCCN1CCOCC1", "Aerobactin synthetase IucA (Klebsiella pneumoniae)", "94.5% (inactive)"]
]}
